// values below are reported IC50
# System: HCV RNA replicon in cell line ET (luc-ubi-neo/ET), human Huh7 hepatoma
# test-name: Method A: HCV RNA replicon antiviral assay (luciferase, ET cell line)
# Type: cell-based, Hepatitis C virus
# conditions-used: Hepatitis C virus, Huh-7; Replicon, assay of Example 22; 72 hr; read-out: Inhibition, Replicon
property-name: IC50

{"molecule": "C=CC(=O)NC[C@H](NC(=O)OC(C)(C)C)C(=O)N1C[C@H](Oc2cc(-c3ccccc3)nc3cc(OC)ccc23)C[C@H]1C(=O)N[C@]1(C(=O)NS(=O)(=O)C2CC2)C[C@H]1C=C", "property-name": "IC50", "result": "< 10 nM"}
{"molecule": "C=C[C@@H]1C[C@]1(NC(=O)[C@@H]1C[C@@H](Oc2cc(-c3ccccc3)nc3cc(OC)ccc23)CN1C(=O)[C@H](CNC(=O)C(Cl)c1ccccc1)NC(=O)OC(C)(C)C)C(=O)NS(=O)(=O)c1ccccc1 (stereo partly shown)", "property-name": "IC50", "result": "100 to 1000 nM"}
{"molecule": "C=C[C@@H]1C[C@]1(NC(=O)[C@@H]1C[C@@H](Oc2cc(-c3ccccc3)nc3cc(OC)ccc23)CN1C(=O)[C@H](CN(C)C(=O)CCl)NC(=O)OC(C)(C)C)C(=O)NS(=O)(=O)c1ccccc1", "property-name": "IC50", "result": "10 to 100 nM"}
{"molecule": "C=C[C@@H]1C[C@]1(NC(=O)[C@@H]1C[C@@H](Oc2cc(-c3ccccc3)nc3cc(OC)ccc23)CN1C(=O)[C@H](CN(C)C(=O)[C@H](Cl)c1ccccc1)NC(=O)OC(C)(C)C)C(=O)NS(=O)(=O)c1ccccc1", "property-name": "IC50", "result": "< 10 nM"}

---

Consider the following compounds and their measured EC50 readings.
# Tested on: HCV RNA replicon in cell line ET (luc-ubi-neo/ET), human Huh7 hepatoma
# test-name: Luciferase Assay (Example 35), replicon-derived luciferase activity
# Type: cell-based
# conditions-used: Hepatitis C virus, Huh-7; assay described in Example 35

{"smiles-str": "C=C[C@@H]1C[C@]1(NC(=O)[C@@H]1C[C@@H](Oc2nccc3ccc(Br)cc23)CN1C(=O)[C@H](CCC(=O)/C(C)=C/C)NC(=O)OC(C)(C)C)C(=O)NS(=O)(=O)C1CC1", "EC50": "10 to 100 nM"}
{"smiles-str": "C=C[C@@H]1C[C@]1(NC(=O)[C@@H]1C[C@@H](Oc2nccc3cc(OC)ccc23)CN1C(=O)[C@H](CCC(=O)C=C(C)C)NC(=O)OC(C)(C)C)C(=O)NS(=O)(=O)C1CC1", "EC50": "< 10 nM"}
{"smiles-str": "C=C[C@@H]1C[C@]1(NC(=O)[C@@H]1C[C@@H](Oc2nccc3cc(OC)ccc23)CN1C(=O)[C@H](CCC(=O)C#CC(C)(C)C)NC(=O)OC(C)(C)C)C(=O)NS(=O)(=O)C1CC1", "EC50": "10 to 100 nM"}
{"smiles-str": "C=CC(=O)N(C)C[C@H](NC(=O)OC(C)(C)C)C(=O)N1C[C@H](Oc2nccc3ccccc23)C[C@H]1C(=O)N[C@]1(C(=O)NS(=O)(=O)C2CC2)C[C@H]1C=C", "EC50": "10 to 100 nM"}
{"smiles-str": "C=C[C@@H]1C[C@]1(NC(=O)[C@@H]1C[C@@H](Oc2nc3ccccc3nc2-c2cccs2)CN1C(=O)[C@H](CCC(=O)C=C(C)C)NC(=O)OC(C)(C)C)C(=O)NS(=O)(=O)C1CC1", "EC50": "10 to 100 nM"}

From: patent US8309685B2
